Source: patent US20240352111A1

- TARGET DESC: T1, mArtemin-MMH (mouse)
- T1 construct: also called msArtemin-MMH; msARTN.mmh
- T1 chain: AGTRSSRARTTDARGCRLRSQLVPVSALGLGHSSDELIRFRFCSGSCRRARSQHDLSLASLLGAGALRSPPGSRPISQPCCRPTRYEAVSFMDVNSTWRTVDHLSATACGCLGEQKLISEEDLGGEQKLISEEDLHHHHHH
- ASSAY METHOD TEXT: BLI (Octet HTX), mAb captured on AHC tips, artemin at 30 nM, 25 C
- Description: The entire experiment was performed at 25° C. in 10 mM HEPES, 150 mM NaCl, 3 mM EDTA, 0.02% NaN3 and 0.05% v/v Surfactant Tween-20, 1 mg/mL BSA, pH7.4 (HBS-EBT) buffer with the plate shaking at a speed of 1000 rpm. […] The real-time binding response was monitored during the entire course of the experiment and the binding response at the end of every step was recorded.
REPORTED PROPERTY: Artemin Binding Response (nm)
Form field: result (number plus unit)

H4H33349P (antibody, human IgG4 S228P, kappa, V domains shown, Fully human antibody; also called Artemin mAb; anti-ARTN antibody) VH: QVQLVESGGGVVQPGRSLRLSCEASGFTFSDYDLHWVRQAPGKGLEWVAFISNDGSNEYYPKSVKGRFSISRDNSKNTLYLQMNSLRAEDTAVYHCTKERDYYYDSSGSLDYWGQGTLVTVSS VL: DIQMTQSPSSLSASVGDRVTITCRASQTINNYLNWYQQKPGKAPKLLIYTTSGLQSGVPSRFSGRGSGTDFTLAISSLQPEDFATYYCQQSYHSPFTFGPGTKVDIKR : 0.11 nm
H4H33331P (antibody, human IgG4 S228P, kappa, V domains shown, Fully human antibody (human variable and constant domains) from a VELOCIMMUNE mouse; also called Artemin mAb; anti-ARTN antibody) VH: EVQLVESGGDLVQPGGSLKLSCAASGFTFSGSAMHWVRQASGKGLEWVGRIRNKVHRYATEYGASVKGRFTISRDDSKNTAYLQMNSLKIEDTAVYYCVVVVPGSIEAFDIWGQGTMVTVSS VL: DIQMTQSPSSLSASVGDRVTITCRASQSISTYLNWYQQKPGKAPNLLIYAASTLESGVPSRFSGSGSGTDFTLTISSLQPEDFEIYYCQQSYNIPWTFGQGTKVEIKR : 0.1 nm

Proceeding to the next binder to report its Artemin Binding Response (nm).
Input line: Please report the measured Artemin Binding Response (nm) for H4H33336P (antibody, human IgG4 S228P, kappa, V domains shown, Fully human antibody; also called Artemin mAb; anti-ARTN antibody) VH: QVQLVESGGGVVQPGRSLRLSCVASGFILSHYGMHWVRQAPGKGLEWVAVIWFDGTNKYYADSVKGRFTVSRDNSKNTLYMQMNSLRAEDTAVYYCARDPPPARRGNYNGMDVWGQGTTVTVSS VL: DIQMTQSPSSLSASVGDRVTITCRASQDIRNDLGWYQQKPGKAPKRLIFGASSLQSGVPLRFSGSGSGTEFTLTINNLQPEDFATFYCLQDNSYPWTFGQGTKVEIKR
Output line: 0.03 nm
